I'd appreciate it if you could supply solubility change mitosis (log2) values for the items below.
# Test system: HeLa Kyoto;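 further: synchronized HeLa Kyoto cells (double thymidine block for G1/S, nocodazole release for mitosis), protein amounts in NP-40 versus SDS lysates quantified by mass spectrometry, three biological replicates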
# PROTOCOL_DESCRIPTION: solubility change mitosis vs G1/S (difference of NP-40 vs SDS log2 ratios) (log2 ratio difference); higher = more soluble in mitosis
Answers are plain numbers.

For the sequence MSSRKQGSQPRGQQSAEEENFKKPTRSNMQRSKMRGASSGKKTAGPQQKNLEPALPGRWGGRSAENPPSGSVRKTRKNKQKTPGNGDGGSTSEAPQPPRKKRARADPTVESEEAFKNRMEVKVKIPEELKPWLVEDWDLVTRQKQLFQLPAKKNVDAILEEYANCKKSQGNVDNKEYAVNEVVAGIKEYFNVMLGTQLLYKFERPQYAEILLAHPDAPMSQVYGAPHLLRLFVRIGAMLAYTPLDEKSLALLLGYLHDFLKYLAKNSASLFTASDYKVASAEYHRKAL [MORF4L2] , what solubility change mitosis (log2) is on record?
0.484

Then MAASLRLLGAASGLRYWSRRLRPAAGSFAAVCSRSVASKTPVGFIGLGNMGNPMAKNLMKHGYPLIIYDVFPDACKEFQDAGEQVVSSPADVAEKADRIITMLPTSINAIEAYSGANGILKKVKKGSLLIDSSTIDPAVSKELAKEVEKMGAVFMDAPVSGGVGAARSGNLTFMVGGVEDEFAAAQELLGCMGSNVVYCGAVGTGQAAKICNNMLLAISMIGTAEAMNLGIRLGLDPKLLAKILNMSSGRCWSSDTYNPVPGVMDGVPSANNYQGGFGTTLMAKDLGLAQDSATSTKSPILLGSLAHQIYRMMCAKGYSKKDFSSVFQFLREEETF [HIBADH] ?
-0.0734

// for each sequence below, give its solubility change mitosis (log2)
1. MENHKSNNKENITIVDISRKINQLPEAERNLLENGSVYVGLNAALCGLIANSLFRRILNVTKARIAAGLPMAGIPFLTTDLTYRCFVSFPLNTGDLDCETCTITRSGLTGLVIGGLYPVFLAIPVNGGLAARYQSALLPHKGNILSYWIRTSKPVFRKMLFPILLQTMFSAYLGSEQYKLLIKALQLSEPGKEIH [TMEM126A]
2. MILQRLFRFSSVIRSAVSVHLRRNIGVTAVAFNKELDPIQKLFVDKIREYKSKRQTSGGPVDASSEYQQELERELFKLKQMFGNADMNTFPTFKFEDPKFEVIEKPQA [ATP5J]
3. MFSSVAHLARANPFNTPHLQLVHDGLGDLRSSSPGPTGQPRRPRNLAAAAVEEQYSCDYGSGRFFILCGLGGIISCGTTHTALVPLDLVKCRMQVDPQKYKGIFNGFSVTLKEDGVRGLAKGWAPTFLGYSMQGLCKFGFYEVFKVLYSNMLGEENTYLWRTSLYLAASASAEFFADIALAPMEAAKVRIQTQPGYANTLRDAAPKMYKEEGLKAFYKGVAPLWMRQIPYTMMKFACFERTVEALYKFVVPKPRSECSKPEQLVVTFVAGYIAGVFCAIVSHPADSVVSVLNKEKGSSASLVLKRLGFKGVWKGLFARIIMIGTLTALQWFIYDSVKVYFRLPRPPPPEMPESLKKKLGLTQ [SLC25A3]
4. MADPWQECMDYAVTLARQAGEVVCEAIKNEMNVMLKSSPVDLVTATDQKVEKMLISSIKEKYPSHSFIGEESVAAGEKSILTDNPTWIIDPIDGTTNFVHRFPFVAVSIGFAVNKKIEFGVVYSCVEGKMYTARKGKGAFCNGQKLQVSQQEDITKSLLVTELGSSRTPETVRMVLSNMEKLFCIPVHGIRSVGTAAVNMCLVATGGADAYYEMGIHCWDVAGAGIIVTEAGGVLMDVTGGPFDLMSRRVIAANNRILAERIAKEIQVIPLQRDDED [IMPA1]

-0.094
0.55
-0.0903
-0.19
